- Tested on: HIV in the HTLV-1 transformed cell line MT-4
- PROTOCOL DESCRIPTION: organism not typed
- Type: cell-based
- SETUP CONDITIONS: MT4, 96 h, MT-4 cells; luciferase/cell titer glo readout after 96 hours; 10 point dose response
Assignment: determine reported pIC50 for the given compounds.
One number for each entry, as −log10 of the molar value.

Consider the worked cases shown below.
Param readout = pIC50; param system = HIV in the HTLV-1 transformed cell line MT-4; param query = Cc1ccc(-c2c(C)c3c(c(C)c2[C@H](OC(C)(C)C)C(=O)O)CN(C(=O)C2CCC2)C3)cc1 [Example 228] ; response: value 7.89

Param readout = pIC50; param system = HIV in the HTLV-1 transformed cell line MT-4; param query = Cc1ccc(-c2c(C)c3c(c(C)c2[C@H](OC(C)(C)C)C(=O)O)CN(C(=O)N2CCN(C)C(=O)C2)C3)cc1 [Example 90] ; response: value 6.57

Param readout = pIC50; param system = HIV in the HTLV-1 transformed cell line MT-4; param query = Cc1ccc(-c2c(C)c3c(c(C)c2[C@H](OC(C)(C)C)C(=O)O)CN(C(=O)N2CCS(=O)(=O)CC2)C3)cc1 [Example 64] ; response: value 6.97

Param readout = pIC50; param system = HIV in the HTLV-1 transformed cell line MT-4; param query = Cc1c(Cl)cccc1C(=O)N1Cc2c(C)c(-c3cc(F)c4c(c3C)CCCO4)c([C@H](OC(C)(C)C)C(=O)O)c(C)c2C1 (atropisomer, axis not shown; (M)) [Example 172] ; response: value 8.15

Param readout = pIC50; param system = HIV in the HTLV-1 transformed cell line MT-4; param query = Cc1ccc(-c2c(C)c3c(c(C)c2[C@H](OC(C)(C)C)C(=O)O)CN(Cc2cccc(Cl)c2)C3)cc1 [Example 45] ; response: value 7.37

State recorded pIC50 for all listed compounds.
1. Cc1ccc(-c2c(C)c3c(c(C)c2[C@H](OC(C)(C)C)C(=O)O)CN(C(=O)c2ccc(Cl)c(F)c2)C3)cc1 [Example 264]
2. Cc1c(-c2c(C)c3c(c(C)c2[C@H](OC(C)(C)C)C(=O)O)CN(C(=O)N2CCC[C@@H]2C)C3)cc(F)c2c1CCCO2 (atropisomer, axis not shown; (M)) [Example 212]
3. Cc1ccc(-c2c(C)c3c(c(C)c2[C@H](OC(C)(C)C)C(=O)O)CN(C(=O)c2cc(C)c(F)c(F)c2)C3)cc1 [Example 278]
4. Cc1ccc(-c2c(C)c3c(c(C)c2[C@H](OC(C)(C)C)C(=O)O)CN(Cc2ccc(C(F)(F)F)cc2)C3)cc1 [Example 27]
5. Cc1ccc(-c2c(C)c3c(c(C)c2[C@H](OC(C)(C)C)C(=O)O)CN(C(=O)N(C)CC2CCCCC2)C3)cc1 [Example 78]

1: 8.05; 2: 8.70; 3: 8.30; 4: 6.03; 5: 6.90

Sourced from patent US10112899B2
